growth by entry:
tested on: T-47D breast; assay: NCI-60 one-dose screen, 48 h (100 = growth as untreated, 0 = no growth, -100 = all killed); details: 10 µM unless noted
The panel holds about 83,000 compounds, 20% with a hit somewhere; the sample as a whole holds those more often.
Give just the number in %; leave the unit off.

Check out these entries, answers already filled in.
Using the record for COc1ccc(-c2c(NC(=O)Nc3ccc(Cl)c(C(F)(F)F)c3)cnn2-c2ccc(S(N)(=O)=O)cc2)cc1 , report its growth.
16.9

Using the record for Cc1cc2c(cc1C)N(C(=O)CCl)CCN2C(=O)CCl , report its growth.
-34.5

Using the record for CCCCn1c(-c2cccc(OC)c2)nc2cc(OC)c(OC)cc2c1=O , report its growth.
91.6

Using the record for COc1ccc(/C=C/C(=O)c2ccc(Oc3ncnc4ccccc34)cc2)cc1OC , report its growth.
52.3

Using the record for COc1ccccc1N1CCN(CC(O)COc2c(Br)c(Br)c(Br)c3c2OC(C)(C)C3)CC1 (stereo not given) , report its growth.
39.8

More entries:
Using the record for Cc1cc[n+](CCCC[n+]2ccc(C)cc2)cc1 , report its growth.
105

Using the record for CN1C(=O)C2(NN=C(c3cccc4ccccc34)S2)c2ccccc21 (stereo not given) , report its growth.
5.27

Using the record for O=C1C(Cl)=C(Nc2ccccc2)C(=O)C(Cl)=C1Nc1ccccc1 , report its growth.
98.4

Using the record for O=C(Nc1ccc(-n2ccc3c(NC(=O)c4ccccc4)ncnc32)cc1)c1ccc(Cl)c(C(F)(F)F)c1 , report its growth.
30.4

Using the record for O=S(=O)(Nc1cccc2cc(OS(=O)(=O)c3ccccc3)ccc12)c1ccccc1 , report its growth.
45.5

====

system: MDA-MB-435 melanoma; assay: NCI-60 one-dose screen, 48 h (100 = growth as untreated, 0 = no growth, -100 = all killed); conditions: 10 µM unless noted
The panel holds about 83,000 compounds, 20% with a hit somewhere; the sample as a whole holds those more often.
assay-readout: growth (%)
Give just the number in %; leave the unit off.

Using the record for Cc1ccn2cc(Cc3cc(=O)oc4c3ccc3ccccc34)c(=O)nc2c1 , report its growth.
104

Using the record for O=S(=O)(Nc1cccc2cc(OS(=O)(=O)c3ccccc3)ccc12)c1ccccc1 , report its growth.
-13.8

Using the record for O=S1(=O)N(CCNc2nccc(-c3c(-c4cccc(O)c4)nc4sccn34)n2)CCN1Cc1ccccc1 , report its growth.
45.9

Using the record for COc1cc(/C=C\c2cc(/C=C\c3ccc(O)c(OC)c3)n(C(=O)CNc3ccccc3OC)n2)ccc1O , report its growth.
6.34

====

System: UACC-257 melanoma
Test: NCI-60 one-dose screen, 48 h
Conditions: 10 µM unless noted
Experimental: Cells are grown in 96 well plates and exposed to the test compound for 48 hours. Compounds are tested at a single concentration, which is 10^-5 M for most compounds. The reported endpoint is percent growth (GI% or GIPRCNT), where numbers from 0 - 100% represent growth inhibition, and numbers from -100% - 0 represent cell death. For example, a value of 40 represents 60% growth inhibition. A value of 0 means no net growth occurred over the course of the experiment. […]
Compounds without any hit were thinned out: in the full panel of roughly 83,000, 20% have a hit. Active and inactive are the calls of the source. Rule for the calls: active = growth percent below 10; inactive = the rest.
// one of active, inactive, no free text

Worked set:
Recorded call for COc1cc(Cn2cc3c(c2)-c2onc(CO)c2CC3)cc(OC)c1OC ?
inactive

Recorded call for Clc1ccc(OCc2nc(-c3ccccc3)n[nH]2)c(Cl)c1 ?
inactive

Recorded call for COc1ccc(-c2[nH]c3ccccc3c2/C=C(\C#N)S(=O)(=O)c2ccccc2)cc1 ?
inactive

Recorded call for Cc1ccc(/C=C2/C(=O)Nc3cc(Cl)c(-c4csc(N)n4)cc32)cc1 ?
inactive

Recorded call for CC(C)(c1ccc(OCC(O)CNCc2ccco2)cc1)c1ccc(OCC(O)CNCc2ccco2)cc1 (stereo unspecified) ?
inactive

Recorded call for CC1=C[S+](c2ccccc2)c2cccc3cc4ccccc4c1c23 (stereo unspecified) ?
active

Recorded call for O=[N+]([O-])c1ccccc1NC1c2ccccc2Oc2ccccc21 ?
inactive

Recorded call for COc1ccc(/C(=C/c2cc(OC)c(OC)c(OC)c2)[N+](=O)[O-])cc1 ?
inactive

Recorded call for Cc1c(NC(=O)c2sc3nc4c(cc3c2N)CN(Cc2ccccc2)CC4)cccc1C(F)(F)F ?
inactive

Recorded call for COc1cc2ncn3c(=O)c4c5c(sc4nc3c2cc1OC)CCCCC5 ?
inactive

More entries:
Recorded call for CCCCCn1ncc(-c2c(O)c(O)cc3c(O)c(-c4c(C)cc5c(-c6cnn(CCCCC)n6)c(O)c(O)cc5c4O)c(C)cc23)n1 ?
inactive

Recorded call for CC(=O)Oc1ccc(C(OC(C)=O)OC(C)=O)cc1 ?
inactive

Recorded call for O=C(O)c1cn(C2CC2)c2cc(N3CCN(C(=O)CSc4nc(NS(=O)(=O)c5ccccc5)cc(=O)[nH]4)CC3)c(F)cc2c1=O ?
inactive

Recorded call for N#CC1=C(N)Oc2c(ccc3ccccc23)C1c1cc(=O)oc2ccc(Cl)cc12 (stereo unspecified) ?
inactive

Recorded call for C=CC(=O)NC(=O)Nc1ccccc1Cl ?
inactive

Recorded call for CCCC(C)(C)COC(=O)c1cccc(N)c1 ?
inactive

Recorded call for O=C(Nc1ccc(-n2ccc3c(NC(=O)c4ccccc4)nccc32)cc1)c1cccc(C(F)(F)F)c1 ?
inactive
